In what follows, each item is paired with its pIC50 for HCV polymerase (Hepatitis C virus genotype 1b, UniProt Q9WMX2).
As a rule, pIC50 stands for the negative log10 of the concentration, concentration in M.

>  <compound>
Cc1nccc(-c2cccc(S(=O)(=O)N3CC(=O)N(c4cc(-c5ccccc5)sc4C(=O)O)C(C4CCCCC4)C3)c2)n1 (centres unmarked) [Compound 63]

>  <pIC50>
7.38

$$$$

Query :: Report value only: pIC50, HCV polymerase (Hepatitis C virus genotype 1b, UniProt Q9WMX2), C[C@H]1CCCN1c1ccc(S(=O)(=O)N2CC(=O)N(c3cc(-c4ccccc4)sc3C(=O)O)C(C3CCCCC3)C2)cn1 (some centres unmarked) [Compound 119]
Result :: 8.05

Query :: Report value only: pIC50, HCV polymerase (Hepatitis C virus genotype 1b, UniProt Q9WMX2), O=C(O)c1sc(-c2ccc(Cl)cc2)cc1N1C(=O)CN(S(=O)(=O)c2ccc(N3CCOCC3)nc2)C[C@H]1C1CCCCC1 [Compound 199]
Result :: 8.70

Query :: Report value only: pIC50, HCV polymerase (Hepatitis C virus genotype 1b, UniProt Q9WMX2), CC1CCC(C)N1c1ccc(S(=O)(=O)N2CC(=O)N(c3cc(-c4ccccc4)sc3C(=O)O)C(C3CCCCC3)C2)cn1 (centres unmarked) [Compound 92]
Result :: 8.40

Query :: Report value only: pIC50, HCV polymerase (Hepatitis C virus genotype 1b, UniProt Q9WMX2), Cc1cccc(CN2CC(=O)N(c3cc(-c4ccccc4)sc3C(=O)O)[C@H](C3CCCCC3)C2)c1 [Compound 263]
Result :: 6.97

Query :: Report value only: pIC50, HCV polymerase (Hepatitis C virus genotype 1b, UniProt Q9WMX2), CCN(CC)c1ccc(S(=O)(=O)N2CC(=O)N(c3cc(-c4ccccc4)sc3C(=O)O)C(C3CCCCC3)C2)cn1 (centres unmarked) [Compound 69]
Result :: 8.70

Query :: Report value only: pIC50, HCV polymerase (Hepatitis C virus genotype 1b, UniProt Q9WMX2), CC(C)(C)C#Cc1cc(N2C(=O)[C@@](C)(CCCO)OC[C@H]2C2CCCCC2)c(C(=O)O)s1 [Compound 311]
Result :: 8.70

---

# experimental.target: HCV polymerase (Hepatitis C virus genotype 1b, UniProt Q9WMX2)
Response field label: string, one of MET (IC50 strictly below 3 nM) or NOT MET.

Study these solved cases before continuing.
>  <compound>
CC(C)(C)OC(=O)N1CCN(c2ccc(S(=O)(=O)N3CC(=O)N(c4cc(-c5ccccc5)sc4C(=O)O)[C@H](C4CCCCC4)C3)cn2)C[C@@H]1CO

>  <cat>
MET

$$$$
>  <compound>
Cc1ccc(-c2cc(N3C(=O)C(C)(C)OC[C@H]3C3CCCCC3)c(C(=O)O)s2)cc1

>  <cat>
NOT MET

$$$$
>  <compound>
CC1C(=O)N(c2cc(-c3ccccc3)sc2C(=O)O)C(C2CCCCC2)CN1S(=O)(=O)c1ccc(N2CCOCC2)nc1 (centres unmarked)

>  <cat>
NOT MET

$$$$
>  <compound>
O=C(N[C@H]1CC(=O)N(c2cc(-c3ccccc3)sc2C(=O)O)[C@H](C2CCCCC2)C1)c1ccccc1

>  <cat>
NOT MET

$$$$
>  <compound>
O=C(O)c1sc(-c2ccccc2)cc1N1C(=O)CN(S(=O)(=O)c2ccc(N3CCOCC3)nc2)C[C@H]1C1CCCCC1

>  <cat>
MET

$$$$

Query :: hey, is IC50 for CN(C)C1CCN(c2ccc(S(=O)(=O)N3CC(=O)N(c4cc(-c5ccccc5)sc4C(=O)O)[C@H](C4CCCCC4)C3)cn2)CC1 lower than 3 nM or not?
Result :: MET

Query :: hey, is IC50 for O=C(O)c1sc(-c2ccc(Cl)cc2)cc1N1C(=O)CN(S(=O)(=O)c2ccc(N3CCCOCC3)nc2)C[C@H]1C1CCCCC1 lower than 3 nM or not?
Result :: MET

Query :: hey, is IC50 for CC(C)(C)C#Cc1cc(N2C(=O)CNCC2C2CCCCC2)c(C(=O)O)s1 (centres unmarked) lower than 3 nM or not?
Result :: NOT MET

Query :: hey, is IC50 for O=C(O)c1sc(-c2ccc(Cl)cc2)cc1N1C(=O)CN(S(=O)(=O)c2ccc(N3CC4CCC(C3)O4)nc2)C[C@H]1C1CCCCC1 lower than 3 nM or not?
Result :: MET

Query :: hey, is IC50 for CC(C)(C)C#Cc1cc(N2C(=O)C(C)(C)OC[C@H]2C2CCCCC2)c(C(=O)O)s1 lower than 3 nM or not?
Result :: MET

Query :: hey, is IC50 for O=C(N[C@H]1CC(=O)N(c2cc(-c3ccccc3)sc2C(=O)O)[C@@H](C2CCCCC2)C1)c1ccccc1 lower than 3 nM or not?
Result :: NOT MET

---

# Tested on: HCV replicon I389luc-ubi-neo/NS3-3′/ET in ET (Huh-lucubineo-ET) cells
# assay.details: Replicon assay (Biological Example 2), luciferase readout
# Format: cell-based
# assay.setup: Hepatitis C virus; ET cells, luciferase activity 48 hours after compound
property.name: IC50

>  <molecule>
O=C(N[C@H]1CC(=O)N(c2cc(-c3ccccc3)sc2C(=O)O)[C@@H](C2CCCCC2)C1)c1ccccc1 [Compound 25]

>  <experimental.target>
HCV replicon I389luc-ubi-neo/NS3-3′/ET in ET (Huh-lucubineo-ET) cells

>  <recorded.value>
≥ 5 µM

$$$$
>  <molecule>
CN(C)[C@@H]1CCN(c2ccc(S(=O)(=O)N3CC(=O)N(c4cc(-c5ccccc5)sc4C(=O)O)[C@H](C4CCCCC4)C3)cn2)C1 [Compound 163]

>  <experimental.target>
HCV replicon I389luc-ubi-neo/NS3-3′/ET in ET (Huh-lucubineo-ET) cells

>  <recorded.value>
≤ 0.1 µM

$$$$

Alright, here's another molecule for you.
Query :: Supply recorded IC50 for CC(C)(C)OC(=O)N1CCN(c2ccc(S(=O)(=O)N3CC(=O)N(c4cc(-c5ccccc5)sc4C(=O)O)[C@H](C4CCCCC4)C3)cn2)C[C@@H]1CO [Compound 161] here.
Result :: ≤ 0.1 µM

---

Below, each entry is listed with its recorded pIC50.
# System: HCV replicon I389luc-ubi-neo/NS3-3′/ET in ET (Huh-lucubineo-ET) cells
# assay.details: Replicon assay (Biological Example 2), luciferase readout
# Format: cell-based
# assay.setup: Hepatitis C virus; ET cells, luciferase activity 48 hours after compound
pIC50: −log10 of the molar value.

In the examples that follow, each entry is paired with its recorded pIC50.
>  <smiles.data>
COc1cccc(S(=O)(=O)N2CC(=O)N(c3cc(C#CC(C)(C)C)sc3C(=O)O)[C@H](C3CCCCC3)C2)c1

>  <recorded.value>
≥ 7.00

$$$$
>  <smiles.data>
O=C(O)c1sc(-c2ccc(Cl)cc2)cc1N1C(=O)CN(S(=O)(=O)c2ccc(N3CCOCC3)nc2)C[C@H]1C1CCCCC1

>  <recorded.value>
≥ 7.00

$$$$

Query :: Report value only: pIC50, HCV replicon I389luc-ubi-neo/NS3-3′/ET in ET (Huh-lucubineo-ET) cells, Cc1ccc(-c2cc(N3C(=O)CN(S(=O)(=O)c4ccc(N5CCOC[C@H]5C)nc4)C[C@H]3C3CCCCC3)c(C(=O)O)s2)cc1
Result :: ≥ 7.00

---

# experimental.target: HCV polymerase (Hepatitis C virus genotype 1b, UniProt Q9WMX2)
property.name: IC50 (nM)
Give the number; nM is assumed, so skip it.

>  <compound>
O=C(O)c1sc(-c2ccccc2)cc1N1C(=O)CN(S(=O)(=O)c2ccc(NC3CCOCC3)nc2)CC1C1CCCCC1 (stereo not shown)

>  <property.name>
IC50

>  <readout.units>
nM

>  <recorded.value>
4

$$$$
>  <compound>
Cc1ccc(-c2cc(N3C(=O)CN(S(=O)(=O)c4cnn(C)c4)C[C@H]3C3CCCCC3)c(C(=O)O)s2)cc1

>  <property.name>
IC50

>  <readout.units>
nM

>  <recorded.value>
4

$$$$
>  <compound>
CCc1ccc(S(=O)(=O)N2CC(=O)N(c3cc(-c4ccccc4)sc3C(=O)O)C(C3CCCCC3)C2)cc1 (stereo not shown) [Compound 56]

>  <property.name>
IC50

>  <readout.units>
nM

>  <recorded.value>
7.1

$$$$

Query :: Report value only: IC50, HCV polymerase (Hepatitis C virus genotype 1b, UniProt Q9WMX2), CCc1ccc(S(=O)(=O)N2CC(=O)N(c3cc(-c4ccccc4)sc3C(=O)O)C(C3CCCCC3)C2)cc1 (single isomer, unassigned) [Compound 55]
Result :: 71

Query :: Report value only: IC50, HCV polymerase (Hepatitis C virus genotype 1b, UniProt Q9WMX2), O=C(O)c1sc(-c2ccc(F)cc2)cc1N1C(=O)CN(S(=O)(=O)c2ccc(N3C[C@H]4C[C@@H]3CO4)nc2)C[C@H]1C1CCCCC1
Result :: 1

Query :: Report value only: IC50, HCV polymerase (Hepatitis C virus genotype 1b, UniProt Q9WMX2), CCCCCS(=O)(=O)N1CC(=O)N(c2cc(-c3ccccc3)sc2C(=O)O)C(C2CCCCC2)C1 (stereo not shown)
Result :: 47

Query :: Report value only: IC50, HCV polymerase (Hepatitis C virus genotype 1b, UniProt Q9WMX2), CC(C)(C)C#Cc1cc(N2C(=O)C(O)CCC2C2CCCCC2)c(C(=O)O)s1 (stereo not shown)
Result :: 31.5
